target: HBV core protein (C-terminal truncated core protein containing 149 amino acids of the N-terminal assembly domain); assay: Biochemical capsid assembly assay (fluorescence quenching); conditions: read-out: Assembly Activity; BODIPY-FL labelled core protein, assembly started with NaCl, read after 6 min
measured quantity: IC50

| compound | IC50 |
| --- | --- |
| CC(COC(F)F)NC(=O)c1cnn2c1CN(C(=O)c1cc3ccccc3[nH]1)CC2 (stereo not shown) [Example 89] | < 5 µM |
| O=C(c1cc2ccccc2[nH]1)N1CCn2ncc(S(=O)(=O)NCCO)c2C1 [Example 29] | < 5 µM |
| O=C(c1cc2ccccc2[nH]1)N1CCn2ncc(C(=O)N3CC4C(C3)C4(F)F)c2C1 (stereo not shown) [Example 42] | < 5 µM |

Now for another entry.
Please indicate IC50 recorded for CN(Cc1ccccn1)C(=O)c1cnn2c1CN(C(=O)c1cc3ccccc3[nH]1)CC2 [Example 44]
< 5 µM
